Values compiled from patent US20220340678A1.

molecular target: T1, histidine-tagged human uPAR (Sino#10925-H08H) (human, UniProt Q03405 23-303); assay: BLI (Octet), uPAR on sensor, antibody in solution (avidity)
T1 construct: also called uPAR-His
attribute_measured: kon

-- ask What value of measured kon is listed for M8 (antibody, V domains shown, Mouse hybridoma antibody; also called anti-uPAR antibody M8; parental M8) VH: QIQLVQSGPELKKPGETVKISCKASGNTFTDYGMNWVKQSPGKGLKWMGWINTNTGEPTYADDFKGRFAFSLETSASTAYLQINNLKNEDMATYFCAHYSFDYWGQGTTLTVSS VL: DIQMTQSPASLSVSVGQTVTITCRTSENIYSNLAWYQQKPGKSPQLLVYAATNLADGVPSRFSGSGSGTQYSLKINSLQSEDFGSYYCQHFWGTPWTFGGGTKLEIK ?
-- reply 311000 M⁻¹ s⁻¹
